# Measurement Protocol: Inhibition of mouse brain glutaminase assessed as ammonia formation at 0.1 uM using glutamine as substrate by Nessler's reagent based assay relative to control
# reported IC50; entries follow

Example compounds with recorded IC50:
{"columns": ["Compound", "IC50"],
 "data": [
  ["O=C(Cc1cccc(OC(F)(F)F)c1)Nc1ccc(CC2CC(c3nnc(NC(=O)Cc4ccccn4)s3)C2)nn1 (stereo not given)", "< 25 nM"],
  ["O=C(Cc1cccc(OC(F)(F)F)c1)Nc1ccc(N2CCCC(c3nnc(NC(=O)Cc4ccccn4)s3)C2)nn1 (stereo not given)", "50 to 200 nM"],
  ["O=C(Cc1cccc(OC(F)(F)F)c1)Nc1ccc(N2CCC(c3nnc(NC(=O)Cc4ccccn4)s3)CC2)nn1", "< 50 nM"]
]}

Prompt: Input `O=C(Cc1ccccn1)Nc1ccc(N2CCC(c3nnc(NC(=O)Cc4cccc(OC(F)(F)F)c4)s3)CC2)nn1` , output reported IC50.
Response: < 50 nM

Prompt: Please look at this compound and report its IC50: `O=C(Cc1cccc(OC(F)(F)F)c1)Nc1ccc(N2CCC(c3nnc(NC(=O)Cc4ccccn4)s3)CC2)cn1`
Response: 1000 to 2000 nM

====

# Measurement Protocol: Inhibition of mouse brain glutaminase assessed as ammonia formation using glutamine as substrate by Nessler's reagent based assay
Endpoint Name: IC50

Prompt: Fill in reported IC50 for this entry: `O=C(Cc1cccc(OC(F)(F)F)c1)Nc1ccc(CCCCc2nnc(NC(=O)Cc3ccccn3)s2)cn1`
Response: 50 to 100 nM

====

Below: a set of entries, each annotated with reported pIC50.
# Measured Target: Glutaminase kidney isoform, mitochondrial (Homo sapiens, UniProt O94925)
# Measurement Protocol: Inhibition of GAC (unknown origin) assessed as NADH formation using 1.8 to 13 mM glutamine as substrate preincubated for 60 mins by resorufin dye based assay
pIC50: −log10 of the molar value.

Illustrative cases are given below, each with its answer.
{"columns": ["Compound", "pIC50"],
 "data": [
  ["O=C(Cc1ccccn1)Nc1nnc([C@H]2CCC[C@H](c3nnc(NC(=O)Cc4ccccn4)s3)C2)s1", "> 7.00"],
  ["O=C(Cc1ccccn1)Nc1nnc(C2CCCCC(c3nnc(NC(=O)Cc4ccccn4)s3)C2)s1 (stereo not drawn)", "5.70 to 6.00"],
  ["O=C(Cc1ccccn1)Nc1nnc([C@@H]2CC[C@H](c3nnc(NC(=O)Cc4ccccn4)s3)C2)s1", "6.00 to 6.30"]
]}

Pending compound:
Prompt: Look up and state reported pIC50 for `O=C(CCCC(=O)c1ccccc1)Nc1nnc(CCCCc2nnc(NC(=O)CCCC(=O)c3ccccc3)s2)s1`
Response: > 7.00

====

# Measured Target: Glutaminase kidney isoform, mitochondrial (Homo sapiens)
# Measurement Protocol: Inhibition of GAC (unknown origin) assessed as NADH formation using 10 mM glutamine as substrate preincubated for 60 mins
pIC50: −log10 of the molar value.
Endpoint Name: pIC50

{"columns": ["Compound Smiles", "Experimental Result"],
 "data": [
  ["O=C(Cc1ccccc1)Nc1ccc(CCCCc2ccc(NC(=O)Cc3ccccc3)nn2)nn1", 8.00]
]}

(P) O=C(Cc1ccccc1)Nc1ccc(CCCCc2nnc(NC(=O)Cc3ccccc3)s2)nn1
(Q) CN(C)c1ccc(CC(=O)Nc2nnc(CCCCc3nnc(NC(=O)Cc4ccc(N(C)C)cc4)s3)s2)cc1
Prompt: Lower pIC50: P or Q ? Which one? Tell me its label.
Response: Q
(Q: 6.62, P: 7.10)

====

# Measured Target: Glutaminase kidney isoform, mitochondrial (Homo sapiens, UniProt O94925)
# Sequence (O94925 whole entry): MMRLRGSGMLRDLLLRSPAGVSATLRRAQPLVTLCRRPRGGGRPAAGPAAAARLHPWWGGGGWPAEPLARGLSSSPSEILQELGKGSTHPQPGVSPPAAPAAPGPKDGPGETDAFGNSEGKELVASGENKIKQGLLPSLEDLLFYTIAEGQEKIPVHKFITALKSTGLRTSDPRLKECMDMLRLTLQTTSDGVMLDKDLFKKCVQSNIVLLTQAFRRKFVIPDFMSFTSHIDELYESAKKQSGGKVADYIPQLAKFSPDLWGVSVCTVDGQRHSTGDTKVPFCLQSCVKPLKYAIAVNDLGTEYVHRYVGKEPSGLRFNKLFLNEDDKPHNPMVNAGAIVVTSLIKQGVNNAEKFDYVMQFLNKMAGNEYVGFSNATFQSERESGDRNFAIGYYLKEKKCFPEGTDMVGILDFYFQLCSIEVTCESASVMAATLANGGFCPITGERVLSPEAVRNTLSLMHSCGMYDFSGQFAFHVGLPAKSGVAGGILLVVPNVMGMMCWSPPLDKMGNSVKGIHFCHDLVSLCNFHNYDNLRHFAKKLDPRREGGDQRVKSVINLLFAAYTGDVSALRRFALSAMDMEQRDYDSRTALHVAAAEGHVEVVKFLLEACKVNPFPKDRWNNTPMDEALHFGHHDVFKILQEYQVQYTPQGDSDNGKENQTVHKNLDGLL
# Measurement Protocol: Inhibition of human KGA (1 to 669 residues) preincubated for 20 mins using 7 mM glutamine as substrate
Endpoint Name: pIC50
Remember the convention: pIC50 equals -log10 of concentration in molar.

Prompt: Give reported pIC50 value for `O=C(Nc1nnc(CCOCCc2nnc(NC(=O)c3ccccc3)s2)s1)c1ccccc1`
Response: 4.99

====

Recorded IC50 values for a group of compounds are listed next.
# Measured Target: Glutaminase kidney isoform, mitochondrial (Homo sapiens)
# Sequence (O94925 whole entry): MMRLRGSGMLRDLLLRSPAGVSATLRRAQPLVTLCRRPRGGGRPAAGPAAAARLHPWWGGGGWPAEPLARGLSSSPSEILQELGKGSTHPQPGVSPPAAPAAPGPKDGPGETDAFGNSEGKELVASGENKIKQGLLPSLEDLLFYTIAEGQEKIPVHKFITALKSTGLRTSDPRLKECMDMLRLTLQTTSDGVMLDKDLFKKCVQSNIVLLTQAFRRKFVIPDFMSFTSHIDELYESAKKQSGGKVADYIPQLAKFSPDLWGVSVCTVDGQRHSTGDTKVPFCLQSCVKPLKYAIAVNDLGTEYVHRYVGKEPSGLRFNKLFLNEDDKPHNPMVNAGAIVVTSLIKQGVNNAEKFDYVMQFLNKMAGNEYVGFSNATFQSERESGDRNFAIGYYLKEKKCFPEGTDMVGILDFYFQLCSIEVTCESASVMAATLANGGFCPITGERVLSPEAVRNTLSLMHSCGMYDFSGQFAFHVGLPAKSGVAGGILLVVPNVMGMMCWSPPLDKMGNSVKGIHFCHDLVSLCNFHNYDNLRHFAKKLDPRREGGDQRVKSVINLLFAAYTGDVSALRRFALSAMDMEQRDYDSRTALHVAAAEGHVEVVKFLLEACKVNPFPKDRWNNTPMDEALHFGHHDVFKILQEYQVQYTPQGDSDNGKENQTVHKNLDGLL
# Measurement Protocol: Inhibition of GAC (unknown origin) using 1 mM glutamine as substrate preincubated for 10 mins by resorufin dye based assay

Below are worked cases with known answers.
{"columns": ["Compound", "IC50"],
 "data": [
  ["O=C(Cc1ccccn1)Nc1ccc([C@H]2CCN(c3nnc(C(=O)NCc4cc(C(F)(F)F)ccn4)s3)C2)nn1", "100 to 500 nM"],
  ["O=C(Cc1ccccc1)Nc1ccn(CC(F)CCn2cc(C(=O)NCc3cccc(OC(F)(F)F)c3)nn2)c(=O)c1 (stereo not drawn)", "≤ 100 nM"],
  ["O=C(Cc1cccc(OC(F)(F)F)c1)Nc1ccc(CCCCc2nnc(C(=O)NCc3ccccn3)s2)nn1", "< 100 nM"],
  ["O=C(NCc1ccccn1)c1cn(CCCCc2nnc(C(=O)NCc3cccc(OC(F)(F)F)c3)s2)nn1", "< 100 nM"],
  ["O=C(Cc1cccc(OC(F)(F)F)c1)Nc1ccc(N2CCC(c3nnc(NC(=O)Cc4ccccn4)s3)C2)nn1 (stereo not drawn)", "≤ 100 nM"],
  ["O=C(Cc1ccccc1)Nc1ccn(CCC(F)Cn2cc(C(=O)NCc3cccc(OC(F)(F)F)c3)nn2)c(=O)c1 (stereo not drawn)", "≤ 100 nM"],
  ["O=C(Cc1ccccc1)Nc1ccn(CCCCc2nnc(NC(=O)Cc3ccccc3)s2)c(=O)c1", "≤ 100 nM"]
]}

Shift focus to the following entry.
Prompt: Fill: IC50 (Glutaminase kidney isoform, mitochondrial (Homo sapiens)) for this compound `O=C(Cc1ccccc1)Nc1nnc(CCCCc2cc3cc(Cc4ccccc4)[nH]c3nn2)s1`
Response: ≤ 100 nM

====

Collected IC50 values appear next to each entry.
# Measured Target: Glutaminase kidney isoform, mitochondrial (Homo sapiens)
# Sequence (O94925 whole entry): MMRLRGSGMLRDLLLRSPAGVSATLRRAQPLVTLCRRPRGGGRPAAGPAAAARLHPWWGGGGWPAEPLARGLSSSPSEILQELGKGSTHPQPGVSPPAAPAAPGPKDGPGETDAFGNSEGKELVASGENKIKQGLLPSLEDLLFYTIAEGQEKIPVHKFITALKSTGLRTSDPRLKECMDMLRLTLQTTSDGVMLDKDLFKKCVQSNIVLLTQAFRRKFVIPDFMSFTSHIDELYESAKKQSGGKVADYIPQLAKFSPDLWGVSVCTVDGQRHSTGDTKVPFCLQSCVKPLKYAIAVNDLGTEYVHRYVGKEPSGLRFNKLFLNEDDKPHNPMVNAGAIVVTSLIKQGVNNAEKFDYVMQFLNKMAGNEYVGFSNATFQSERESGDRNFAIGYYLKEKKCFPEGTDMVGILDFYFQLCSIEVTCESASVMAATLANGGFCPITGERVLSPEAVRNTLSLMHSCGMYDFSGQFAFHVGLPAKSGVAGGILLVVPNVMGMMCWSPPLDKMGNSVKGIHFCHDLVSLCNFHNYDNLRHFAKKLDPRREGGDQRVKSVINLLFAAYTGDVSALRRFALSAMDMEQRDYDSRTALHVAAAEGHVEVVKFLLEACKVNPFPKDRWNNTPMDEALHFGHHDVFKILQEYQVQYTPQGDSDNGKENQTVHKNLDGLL
# Measurement Protocol: Inhibition of GAC (unknown origin) assessed as NADH formation using 1.8 to 13 mM glutamine as substrate preincubated for 60 mins by resorufin dye based assay

Illustrative cases are given below, each with its answer.
{"columns": ["Molecule", "Measured Target", "IC50"],
 "data": [
  ["CC(=O)Nc1ccc([C@H]2CCC[C@H](c3ccc(NC(C)=O)nn3)C2)nn1", "Glutaminase kidney isoform, mitochondrial (Homo sapiens)", "2000 to 10000 nM"],
  ["O=C(Cc1ccccn1)Nc1nnc(CC2CCC(Cc3nnc(NC(=O)Cc4ccccn4)s3)C2)s1 (stereo not given)", "Glutaminase kidney isoform, mitochondrial (Homo sapiens)", "2000 to 10000 nM"],
  ["O=C(Cc1ccccn1)Nc1nnc(CC2CC(Cc3nnc(NC(=O)Cc4ccccn4)s3)C2)s1 (stereo not given)", "Glutaminase kidney isoform, mitochondrial (Homo sapiens)", "2000 to 10000 nM"],
  ["O=C(Cc1ccccn1)Nc1nnc([C@@H]2CC[C@@H](c3nnc(NC(=O)Cc4ccccn4)s3)C2)s1", "Glutaminase kidney isoform, mitochondrial (Homo sapiens)", "< 100 nM"],
  ["O=C(Cc1ccccn1)Nc1ccc([C@@H]2CCC[C@H](c3ccc(NC(=O)Cc4ccccn4)nn3)C2)nn1", "Glutaminase kidney isoform, mitochondrial (Homo sapiens)", "< 100 nM"],
  ["O=C(Cc1ccccn1)Nc1nnc(C[C@@H]2C[C@H]2Cc2nnc(NC(=O)Cc3ccccn3)s2)s1 (racemic)", "Glutaminase kidney isoform, mitochondrial (Homo sapiens)", "500 to 1000 nM"],
  ["O=C(Cc1c[nH]c2ccccc12)Nc1nnc(CCCCc2nnc(NC(=O)Cc3c[nH]c4ccccc34)s2)s1", "Glutaminase kidney isoform, mitochondrial (Homo sapiens)", "< 100 nM"],
  ["O=C(Cc1ccccn1)Nc1nnc(C[C@H]2CC[C@H](Cc3nnc(NC(=O)Cc4ccccn4)s3)CC2)s1", "Glutaminase kidney isoform, mitochondrial (Homo sapiens)", "500 to 1000 nM"]
]}

Prompt: Supply IC50 measured with Glutaminase kidney isoform, mitochondrial (Homo sapiens) for `O=C(Cc1ccccn1)Nc1nnc([C@@H]2CCC[C@@H](c3nnc(NC(=O)Cc4ccccn4)s3)C2)s1` .
Response: 1000 to 2000 nM

Prompt: // fetch IC50 for `O=C(Cc1ccccc1)Nc1nnc([C@H]2CCC[C@H](c3nnc(NC(=O)Cc4ccccc4)s3)C2)s1` ; system: Glutaminase kidney isoform, mitochondrial (Homo sapiens)
Response: < 100 nM

meta.source: ChEMBL document CHEMBL4308839
